Tested on: HaCaT
Assay: Antiproliferative activity against human HaCaT cells assessed as dispersed cells after 48 hrs by phase-contrast microscopic analysis
Type: functional, cell-based
assay endpoint: IC50

Look over these answered cases.
Task item: Param item = `COc1ccc(CCn2c3ccccc3c(=O)c3c(O)cccc32)cc1` ; retrieve measured IC50.
Reply: 6.3 µM

Task item: One more compound: `O=c1c2ccccc2n(Cc2ccccc2)c2ccccc12`
Reply: > 50 µM

Value sought for every listed compound: IC50.
1. COc1cc(O)c2c(=O)c3ccccc3n(C)c2c1
2. O=c1c2ccccc2n(CCCCc2ccccc2)c2cccc(O)c12
3. COc1cc(CCn2c3ccccc3c(=O)c3c(O)cccc32)cc(OC)c1OC
4. CC(=O)CC(=O)n1c2ccccc2c(=O)c2c(O)cccc21
5. O=c1c2ccccc2n(Cc2ccccc2)c2cc(OCc3ccccc3)cc(O)c12

Reply:
> 50 µM
> 50 µM
45.5 µM
3.3 µM
> 50 µM

====

Test system: HaCaT
Assay: Cytotoxicity against human HaCaT cells assessed as LDH release at 2 uM after 4 hrs by UV method
Type: functional
assay endpoint: Activity (mU/ml)
Give bare numbers, in mU/ml.

Look over these answered cases.
Task item: Param item = `O=c1c2ccccc2n(Cc2ccccc2)c2cccc(O)c12` ; retrieve measured Activity.
Reply: 74.9

Task item: One more compound: `COc1ccc(CCn2c3ccccc3c(=O)c3c(O)cccc32)cc1`
Reply: 74.6

Value sought for every listed compound: Activity.
1. Cn1c2ccccc2c(=O)c2c(O)cc(O)cc21
2. O=c1c2ccccc2n(Cc2ccccc2)c2cccc(OCc3ccccc3)c12
3. CC(=O)CC(=O)n1c2ccccc2c(=O)c2c(O)cccc21

Reply:
74.3
72.1
74

Value sought for every listed compound: Activity.
1. O=c1c2ccccc2n(Cc2ccccc2)c2cc(O)cc(O)c12
2. COc1cc2c(c3c1c(=O)c1ccccc1n3C)C=CC(C)(C)O2

Reply:
1. 76.8
2. 70.4

====

Test system: HaCaT
Test: Antiproliferative activity against human HaCaT cells assessed as dispersed cells after 48 hrs by phase-contrast microscopic analysis
Assay type: functional, cell-based
assay endpoint: pIC50
Give bare numbers, as −log10 of the molar value.

Look over these answered cases.
Task item: Param item = `O=c1c2ccccc2n(CCCc2ccccc2)c2cc(O)cc(O)c12` ; retrieve measured pIC50.
Reply: 4.39

Task item: One more compound: `O=c1c2ccccc2n(Cc2ccccc2)c2ccc(Cc3ccccc3)c(O)c12`
Reply: 4.89

Value sought for every listed compound: pIC50.
1. Cn1c2ccccc2c(=O)c2ccccc21
2. COc1cc2c(c3c1c(=O)c1ccccc1n3C)C=CC(C)(C)O2 [ACRONINE]
3. COc1ccc(CCn2c3ccccc3c(=O)c3c(O)cccc32)cc1OC
4. O=c1c2ccccc2n(Cc2ccc([N+](=O)[O-])cc2)c2cccc(O)c12
5. Cn1c2ccccc2c(=O)c2c(O)cc(O)cc21

Reply:
4.41
5.49
5.15
5.74
6.22

Value sought for every listed compound: pIC50.
1. O=c1c2ccccc2n(Cc2ccccc2)c2cccc(O)c12
2. O=c1c2ccccc2n(CCc2ccc(O)cc2)c2cccc(O)c12
3. O=c1c2ccccc2n(Cc2ccccc2)c2cc(O)cc(O)c12

Reply:
5.60
4.70
5.43

Value sought for every listed compound: pIC50.
1. O=c1c2ccccc2n(CCc2ccccc2)c2cccc(O)c12
2. O=c1c2ccccc2n(Cc2ccccc2)c2cccc(OCc3ccccc3)c12
3. CC(=O)CC(=O)n1c2ccccc2c(=O)c2ccccc21

Reply:
4.38
5.12
4.56
